biological target: L-histidine 2-aminobutanoyltransferase (Pseudomonas aeruginosa, UniProt Q9HUX4); assay: Binding affinity to N-terminal his6-tagged Pseudomonas aeruginosa CntL assessed as dissociation constant by ITC analysis
Sequence (Q9HUX4 whole entry): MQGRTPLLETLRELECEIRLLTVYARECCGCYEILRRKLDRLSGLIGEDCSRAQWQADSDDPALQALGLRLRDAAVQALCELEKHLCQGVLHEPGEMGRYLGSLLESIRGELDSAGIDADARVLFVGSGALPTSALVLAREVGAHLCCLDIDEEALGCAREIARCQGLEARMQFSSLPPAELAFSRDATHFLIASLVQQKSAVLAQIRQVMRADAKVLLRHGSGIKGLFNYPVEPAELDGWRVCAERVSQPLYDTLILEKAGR
Readout Label: Kd (µM)

1. Nc1ncnc2c1ncn2[C@@H]1O[C@H](CSCCN[C@@H](Cc2c[nH]cn2)C(=O)O)[C@@H](O)[C@H]1O ... 0.22

P = Nc1ncnc2c1ncn2[C@@H]1O[C@H](CSCCCN[C@@H](Cc2c[nH]cn2)C(=O)O)[C@@H](O)[C@H]1O
Q = CSC[C@H]1O[C@@H](n2cnc3c(N)ncnc32)[C@H](O)[C@@H]1O
Query: Select one. Lower Kd: P or Q Label of pick, please.
Result: P

====

target: D-histidine 2-aminobutanoyltransferase (Staphylococcus aureus (strain Mu50 / ATCC 700699), UniProt A0A0H3JXA8); assay: Inhibition of N-terminal his6-tagged Staphylococcus aureus ATCC 700699 CntL using SAM as substrate preincubated with compound for 10 mins followed by substrate addition and measured after 25 mins in presence of NADPH by microplate reader analysis
pIC50: −log10 of the molar value.
Readout Label: pIC50

A = Nc1ncnc2c1ncn2[C@@H]1O[C@H](CSCCN[C@@H](Cc2c[nH]cn2)C(=O)O)[C@@H](O)[C@H]1O
B = Nc1ncnc2c1ncn2[C@@H]1O[C@H](CSCCCN[C@@H](Cc2c[nH]cn2)C(=O)O)[C@@H](O)[C@H]1O
Query: Select one. Lower pIC50: A or B Label of pick, please.
Result: B

====

target: D-histidine 2-aminobutanoyltransferase (Staphylococcus aureus (strain Mu50 / ATCC 700699)); assay: Induction of thermal stabilization of Staphylococcus aureus ATCC 700699 CntL assessed as change in melting temperature at 100 uM by fluorescence-based thermal shift assay
Readout Label: ΔTm (°C)

Sample records with ΔTm:
1) Nc1ncnc2c1ncn2[C@@H]1O[C@H](CSCCN[C@@H](Cc2c[nH]cn2)C(=O)O)[C@@H](O)[C@H]1O ... 8.4
2) Nc1ncnc2c1ncn2[C@@H]1O[C@H](CSCCC(=O)N[C@@H](Cc2c[nH]cn2)C(=O)O)[C@@H](O)[C@H]1O ... 1.7

I = Nc1ncnc2c1ncn2[C@@H]1O[C@H](CSCCCNC(=O)[C@H](N)Cc2c[nH]cn2)[C@@H](O)[C@H]1O
II = Nc1ncnc2c1ncn2[C@@H]1O[C@H](CSCCCN[C@@H](Cc2c[nH]cn2)C(=O)O)[C@@H](O)[C@H]1O
Query: I'd appreciate it if you could identify which of I and II has the greater ΔTm. Label of pick, please.
Result: II
(II: 7.7 °C, I: 0.7 °C)

====

Target: D-histidine 2-aminobutanoyltransferase (Staphylococcus aureus (strain Mu50 / ATCC 700699))
Sequence (whole entry): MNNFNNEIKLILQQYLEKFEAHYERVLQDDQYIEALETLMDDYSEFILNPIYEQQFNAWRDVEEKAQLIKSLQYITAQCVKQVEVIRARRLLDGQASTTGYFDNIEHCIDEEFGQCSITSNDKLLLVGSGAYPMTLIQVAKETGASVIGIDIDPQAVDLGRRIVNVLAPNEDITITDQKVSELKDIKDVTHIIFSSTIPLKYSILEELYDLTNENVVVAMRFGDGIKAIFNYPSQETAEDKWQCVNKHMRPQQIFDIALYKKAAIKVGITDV
Experiment: Inhibition of N-terminal his6-tagged Staphylococcus aureus ATCC 700699 CntL at 5 uM using SAM as substrate preincubated with compound for 10 mins followed by substrate addition and measured after 25 mins in presence of NADPH by microplate reader analysis relative to control
Settings: time 35.0 min
Readout Label: inhibition (%)

1. Nc1ncnc2c1ncn2[C@@H]1O[C@H](CSCCN[C@@H](Cc2c[nH]cn2)C(=O)O)[C@@H](O)[C@H]1O ... 92
2. Nc1ncnc2c1ncn2[C@@H]1O[C@H](CSCCCN[C@@H](Cc2c[nH]cn2)C(=O)O)[C@@H](O)[C@H]1O ... 96

====

target: D-histidine 2-aminobutanoyltransferase (Staphylococcus aureus (strain Mu50 / ATCC 700699)) (UniProt A0A0H3JXA8); assay: Binding affinity to N-terminal his6-tagged Staphylococcus aureus ATCC 700699 CntL assessed as change in enthalpy by ITC analysis
Readout Label: deltaH (kcal/mol)

1. Nc1ncnc2c1ncn2[C@@H]1O[C@H](CSCCCN[C@@H](Cc2c[nH]cn2)C(=O)O)[C@@H](O)[C@H]1O ... -18.3
2. Nc1ncnc2c1ncn2[C@@H]1O[C@H](CSCCN[C@@H](Cc2c[nH]cn2)C(=O)O)[C@@H](O)[C@H]1O ... -17.8

1 = CSC[C@H]1O[C@@H](n2cnc3c(N)ncnc32)[C@H](O)[C@@H]1O [METHYLTHIOADENOSINE]
2 = Nc1nc(Cl)nc2c1ncn2[C@@H]1O[C@H](CSCCN[C@@H](Cc2c[nH]cn2)C(=O)O)[C@@H](O)[C@H]1O
Query: Select one. Lower deltaH: 1 or 2 Label of pick, please.
Result: 1

====

Target: D-histidine 2-aminobutanoyltransferase (Staphylococcus aureus (strain Mu50 / ATCC 700699))
Sequence (whole entry): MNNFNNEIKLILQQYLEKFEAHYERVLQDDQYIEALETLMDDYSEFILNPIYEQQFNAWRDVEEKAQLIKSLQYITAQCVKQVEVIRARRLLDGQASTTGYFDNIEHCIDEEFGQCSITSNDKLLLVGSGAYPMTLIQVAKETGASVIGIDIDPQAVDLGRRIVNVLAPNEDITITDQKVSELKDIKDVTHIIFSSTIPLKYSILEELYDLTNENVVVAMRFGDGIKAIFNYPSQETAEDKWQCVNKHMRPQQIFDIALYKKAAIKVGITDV
Assay: Binding affinity to N-terminal his6-tagged Staphylococcus aureus ATCC 700699 CntL assessed as gibbs free energy change by ITC analysis
Readout Label: deltaG (kcal/mol)

Sample records with deltaG:
1) Nc1ncnc2c1ncn2[C@@H]1O[C@H](CSCCN[C@@H](Cc2c[nH]cn2)C(=O)O)[C@@H](O)[C@H]1O ... -10.1
2) Nc1ncnc2c1ncn2[C@@H]1O[C@H](CSCCCN[C@@H](Cc2c[nH]cn2)C(=O)O)[C@@H](O)[C@H]1O ... -9.2

1 = CSC[C@H]1O[C@@H](n2cnc3c(N)ncnc32)[C@H](O)[C@@H]1O [METHYLTHIOADENOSINE]
2 = Nc1nc(Cl)nc2c1ncn2[C@@H]1O[C@H](CSCCN[C@@H](Cc2c[nH]cn2)C(=O)O)[C@@H](O)[C@H]1O
Query: I'd appreciate it if you could identify which of 1 and 2 has the greater deltaG. Label of pick, please.
Result: 1

====

target: D-histidine 2-aminobutanoyltransferase (Staphylococcus aureus (strain Mu50 / ATCC 700699)) (UniProt A0A0H3JXA8); assay: Induction of thermal stabilization of Staphylococcus aureus ATCC 700699 CntL assessed as change in melting temperature by fluorescence-based thermal shift assay
Readout Label: ΔTm (°C)

Sample records with ΔTm:
1. Nc1ncnc2c1ncn2[C@@H]1O[C@H](CSCCN[C@@H](Cc2c[nH]cn2)C(=O)O)[C@@H](O)[C@H]1O ... 1
2. COc1nc(N)c2ncn([C@@H]3O[C@H](CSCCCN[C@@H](Cc4c[nH]cn4)C(=O)O)[C@@H](O)[C@H]3O)c2n1 ... 4.7
3. Nc1nc(Cl)nc2c1ncn2[C@@H]1O[C@H](CSCCN[C@@H](Cc2c[nH]cn2)C(=O)O)[C@@H](O)[C@H]1O ... 9.4

A = Nc1ncnc2c1ncn2[C@@H]1O[C@H](CSCCCN[C@@H](Cc2c[nH]cn2)C(=O)O)[C@@H](O)[C@H]1O
B = Nc1nc(Cl)nc2c1ncn2[C@@H]1O[C@H](CSCCCNC(Cc2c[nH]cn2)C(=O)O)[C@@H](O)[C@H]1O (single isomer, unassigned)
Query: Select one. Lower ΔTm: A or B Label of pick, please.
Result: A

====

Molecular target: D-histidine 2-aminobutanoyltransferase (Staphylococcus aureus (strain Mu50 / ATCC 700699))
Sequence (whole entry): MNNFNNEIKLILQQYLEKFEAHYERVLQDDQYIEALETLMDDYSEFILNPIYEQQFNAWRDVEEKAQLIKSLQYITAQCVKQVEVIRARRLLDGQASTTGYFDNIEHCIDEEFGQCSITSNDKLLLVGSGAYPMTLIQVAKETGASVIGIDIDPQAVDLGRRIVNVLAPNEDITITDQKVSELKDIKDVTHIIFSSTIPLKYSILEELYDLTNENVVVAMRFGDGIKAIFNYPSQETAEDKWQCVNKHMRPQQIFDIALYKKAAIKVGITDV
Experiment: Binding affinity to N-terminal his6-tagged Staphylococcus aureus ATCC 700699 CntL assessed as change in entropy by ITC analysis
Readout Label: -TdeltaS (kJ/mol)

1. Nc1ncnc2c1ncn2[C@@H]1O[C@H](CSCCCN[C@@H](Cc2c[nH]cn2)C(=O)O)[C@@H](O)[C@H]1O ... 37.9

1 = Nc1nc(Cl)nc2c1ncn2[C@@H]1O[C@H](CSCCN[C@@H](Cc2c[nH]cn2)C(=O)O)[C@@H](O)[C@H]1O
2 = Nc1ncnc2c1ncn2[C@@H]1O[C@H](CSCCN[C@@H](Cc2c[nH]cn2)C(=O)O)[C@@H](O)[C@H]1O
3 = CSC[C@H]1O[C@@H](n2cnc3c(N)ncnc32)[C@H](O)[C@@H]1O
Query: Rank entries according to their -TdeltaS, from the largest number down. Please write the labels in the order that was asked for.
Result: 3, 2, 1
